Values from patent US7544698B2

Molecular target: human histamine H4 receptor (Homo sapiens)
Construct: cell membranes
Sequence (Q9H3N8 whole entry): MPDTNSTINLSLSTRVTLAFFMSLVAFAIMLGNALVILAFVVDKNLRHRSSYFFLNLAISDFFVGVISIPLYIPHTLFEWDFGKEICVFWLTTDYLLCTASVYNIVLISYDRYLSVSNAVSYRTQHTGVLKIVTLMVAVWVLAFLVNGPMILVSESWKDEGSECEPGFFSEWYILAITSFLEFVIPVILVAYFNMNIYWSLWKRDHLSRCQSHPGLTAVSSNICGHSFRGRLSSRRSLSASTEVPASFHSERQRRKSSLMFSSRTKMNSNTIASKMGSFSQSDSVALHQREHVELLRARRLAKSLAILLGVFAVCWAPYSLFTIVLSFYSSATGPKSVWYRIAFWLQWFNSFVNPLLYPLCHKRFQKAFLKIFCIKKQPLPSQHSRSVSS
Experiment: Binding Assay on Recombinant Human Histamine H4 Receptor (3H-histamine competition, membranes of transfected SK-N-MC or COS7 cells)
Details: competition with 3H-histamine (5 nM ligand, KD 5 nM), Cheng-Prusoff; mean of results; > = solubility limit or highest concentration tested
Description: Binding Assay on Recombinant Human Histamine H4 Receptor SK-N-MC cells or COS7 cells were transiently transfected with pH4R and grown in 150 cm^2 tissue culture dishes. Cells were washed with saline solution, scraped with a cell scraper and collected by centrifugation (1000 rpm, 5 min). […] Filters were then dried, mixed with scintillant and counted for radioactivity. […]
Counter-ions that a name gives are not always drawn.
recorded_endpoint: pKi
Scale explanation: pKi corresponds to minus log10 of a concentration expressed in moles per litre.

input: Tell me its pKi given O=C(c1cc2cc(F)ccc2[nH]1)N1C[C@H]2CCCN[C@H]2C1 (relative stereo) [Example 13, hydrochloride salt] as the entry.
output: 7.55

input: Tell me its pKi given `CN[C@@H]1CCN(C(=O)c2cc3cc(Cl)ccc3[nH]2)C1` as the entry.
output: 7.28

input: Tell me its pKi given `CN[C@H]1CCN(C(=O)c2cc3cc(F)ccc3[nH]2)C1` as the entry.
output: 6.17

input: Tell me its pKi given CN(C)C1CCN(C(=O)c2cc3cc(Cl)ccc3[nH]2)C1 (stereo not shown) as the entry.
output: 5.94
